These measurements were taken from PubChem BioAssay.

- System: anti-desmoglein-3 scFv antibody binding to human DSG3
- protocol-details: inhibitors of anti-DSG3 scFv binding to DSG3, pilot screen, biochemical, validation compound set, bead-based, flow cytometry (AID 588368);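 note: signal is the median channel fluorescence of bead-bound GFP antibody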
- experimental-parameters: Protein G beads, DSG3-Fc, scFv-GFP binding, at 10 µM
Activity calls are given as the source filed them.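 Rule for the calls: active = binding below the plate cutoff, the plate median minus 3 SD, with a reading above zero; inconclusive = below the plate cutoff but reading exactly zero; inactive = the rest.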
Pick from active, inactive when you respond.

Hello, I am checking results. What call was entered for Cc1cc2c(C(C)C)c(O)c(O)c(C=O)c2c(O)c1-c1c(C)cc2c(C(C)C)c(O)c(O)c(C=O)c2c1O ?
active

Hello, I am checking results. What call was entered for C[C@H]1CCC[C@H](O)CCCCCc2cc(O)cc(O)c2C(=O)O1 ?
inactive

Hello, I am checking results. What call was entered for CCCC[N+]1(C)[C@@H]2CC(OC(=O)[C@H](CO)c3ccccc3)C[C@H]1[C@@H]1O[C@@H]12 (stereo partly specified) ?
inactive

Hello, I am checking results. What call was entered for COc1ccc(-c2nc3ccccc3c(=O)o2)cc1 ?
inactive

Hello, I am checking results. What call was entered for CC(=O)C1=C(C)OC(N)=C(C(=O)OC(C)C)C12C(=O)Nc1ccccc12 (stereo unspecified) ?
inactive

Hello, I am checking results. What call was entered for Clc1ccc(COC(Cn2ccnc2)c2ccc(Cl)cc2Cl)c(Cl)c1 (stereo unspecified) ?
inactive

Hello, I am checking results. What call was entered for O=C1NC(=O)C2(Cc3ccccc3N3CCCC32)C(=O)N1c1ccc(Cl)cc1 (stereo unspecified) ?
inactive

Hello, I am checking results. What call was entered for NC(=O)CN1CCCC1=O ?
inactive

Hello, I am checking results. What call was entered for CC[C@]12C=CCN3CCC4(c5cc(Br)c(OC)cc5N(C)C4[C@@](O)(C(=O)OC)[C@@H]1OC(C)=O)C32 (stereo partly specified) ?
inactive

Hello, I am checking results. What call was entered for CC12CC[C@H]3[C@@H](CCC4(O)C[C@H](O)CCC34/C=N/NC(=O)Cc3ccccc3)C1(O)CCC2C1=CC(=O)OC1 (stereo partly specified) ?
inactive

Hello, I am checking results. What call was entered for CC12CN3CC(C)(CN(C1)C3c1cccs1)C2=O (stereo unspecified) ?
inactive

Hello, I am checking results. What call was entered for OC1CCCCC1N1CCC(c2ccccc2)CC1 (stereo unspecified) ?
inactive

Hello, I am checking results. What call was entered for C[N+]1(C)C2CCC1CC(OC(=O)C(CO)c1ccccc1)C2 (stereo unspecified) ?
inactive

Hello, I am checking results. What call was entered for CC(CCc1ccccc1)NC(C)C(O)c1ccc(O)cc1 (stereo unspecified) ?
inactive

Hello, I am checking results. What call was entered for O=c1[nH]c(=S)n(-c2ccccc2)c(O)c1/C=N/N1CCCCC1c1cccnc1 (stereo unspecified) ?
inactive

Hello, I am checking results. What call was entered for CCN1CC2(COC(=O)c3ccccc3N)CCC(OC)C34C5CC6C(OC)CC(O)(C5C6OC)C(O)(C(OC)C23)C14 (stereo unspecified) ?
inactive

Hello, I am checking results. What call was entered for COc1ccc(OC)c([C@@H](O)[C@H](C)NC(C)(C)C)c1 ?
inactive

Hello, I am checking results. What call was entered for COc1cc2c3cc1Oc1cc(ccc1O)C[C@@H]1c4c(cc(OC)c(O)c4Oc4ccc(cc4)C[C@H]3N(C)CC2)CCN1C ?
inactive

Hello, I am checking results. What call was entered for OCc1cnc[nH]1 ?
inactive

Hello, I am checking results. What call was entered for O=c1c2ccccc2nc(/C=C/c2ccc3c(c2)OCO3)n1-c1ccccc1 ?
inactive

Hello, I am checking results. What call was entered for CCC(COC(=O)c1cc(OC)c(OC)c(OC)c1)(c1ccccc1)N(C)C (stereo unspecified) ?
inactive

----------
- protocol-details: yeast TOR pathway RPL19A-GFP modulators, primary screen, cell-based, S. cerevisiae, multiplex flow cytometry (AID 1862);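 note: lower values mimic rapamycin by blocking the RPL19A rise seen in DMSO cells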
- experimental-parameters: S. cerevisiae RPL19A-GFP strain, flow cytometry fluorescence, 3 h; at 10 µM; stronger effect = lower value
Results filed as inconclusive are left out. Active and inactive are the calls of the source. Cut-off read from the data, not from the text of the source: active = percent of DMSO control GFP below about 86%; inactive = the rest, inconclusive results apart.
For each entry below, report its percent of DMSO control GFP value.

Which value of percent of DMSO control GFP has been reported for [N-]=[N+]=CC(=O)OC[C@H](N)C(=O)O in the records?
102% (inactive)

Which value of percent of DMSO control GFP has been reported for CCN(CC)C(=O)N[C@H]1C[C@@H]2c3cccc4[nH]cc(c34)C[C@H]2N(C)C1 in the records?
101% (inactive)

Which value of percent of DMSO control GFP has been reported for S=C1NCCN1 in the records?
99.1% (inactive)

Which value of percent of DMSO control GFP has been reported for C[C@]12CCC(=O)C=C1CC[C@@H]1[C@@H]2CC[C@]2(C)C(=O)CC[C@@H]12 in the records?
97.6% (inactive)

Which value of percent of DMSO control GFP has been reported for CC(C)CCC1(CN2CCCC2=O)C(=O)NC(=O)NC1=O in the records?
95.4% (inactive)

Which value of percent of DMSO control GFP has been reported for CC12CN3CC(C)(CN(C1)C3c1cccs1)C2=O (centres undefined) in the records?
101% (inactive)

Which value of percent of DMSO control GFP has been reported for CC(C)NC(C)C(=O)c1ccc2ccccc2c1 (centres undefined) in the records?
104% (inactive)

Which value of percent of DMSO control GFP has been reported for CCN1CC2(COC(=O)c3ccccc3N)CCC(OC)C34C5CC6C(OC)CC(O)(C5C6OC)C(O)(C(OC)C23)C14 (centres undefined) in the records?
91.1% (inactive)

Which value of percent of DMSO control GFP has been reported for O=C(O)CCCc1ccc(N(CCCl)CCCl)cc1 in the records?
101% (inactive)

Which value of percent of DMSO control GFP has been reported for C[N+]1(C)C2CCC1CC(OC(=O)C(CO)c1ccccc1)C2 (centres undefined) in the records?
106% (inactive)

Which value of percent of DMSO control GFP has been reported for CC(C)[C@H]1C(=O)N2CCC[C@H]2[C@]2(O)O[C@](NC(=O)[C@@H]3C=C4c5cccc6[nH]cc(c56)C[C@H]4N(C)C3)(C(C)C)C(=O)N12 in the records?
99% (inactive)

Which value of percent of DMSO control GFP has been reported for CCOc1ccc(C2C(C#N)=C(N)Oc3c2c(=O)oc2ccccc32)cc1 (centres undefined) in the records?
104% (inactive)

Which value of percent of DMSO control GFP has been reported for c1ccc2c(c1)[nH]c1cnccc12 in the records?
102% (inactive)

Which value of percent of DMSO control GFP has been reported for Clc1ccc(C2NCCc3[nH]cnc32)cc1 (centres undefined) in the records?
104% (inactive)

Which value of percent of DMSO control GFP has been reported for COc1ccc(NC2=NCC(C)S2)cc1 (centres undefined) in the records?
103% (inactive)

Which value of percent of DMSO control GFP has been reported for CN[C@H](C)[C@H](O)c1ccccc1 in the records?
90.2% (inactive)

Which value of percent of DMSO control GFP has been reported for Clc1ccc(COC(Cn2ccnc2)c2ccc(Cl)cc2Cl)cc1 (centres undefined) in the records?
104% (inactive)

Which value of percent of DMSO control GFP has been reported for C#C[C@]1(O)CC[C@H]2[C@@H]3CCC4=CC(=O)CC[C@]4(C)[C@H]3CC[C@@]21C in the records?
88.7% (inactive)

Which value of percent of DMSO control GFP has been reported for CC12CN3CC(C)(CN(C1)C31CCOCC1)C2=O in the records?
92.6% (inactive)

Which value of percent of DMSO control GFP has been reported for NC(=O)CN1CCCC1=O in the records?
95% (inactive)

Which value of percent of DMSO control GFP has been reported for Cc1ccc(-n2c(C)cc(/C=C3/C(=O)NC(=O)N(C)C3=O)c2C)cc1 in the records?
103% (inactive)

Which value of percent of DMSO control GFP has been reported for NCCc1c[nH]c2ccc(F)cc12 in the records?
98.2% (inactive)

Which value of percent of DMSO control GFP has been reported for CN1CC[C@@]23CCCC[C@@H]2[C@@H]1Cc1ccc(O)cc13 in the records?
99.4% (inactive)

Which value of percent of DMSO control GFP has been reported for CC12CC[C@H]3[C@@H](CCC4(O)C[C@H](O)CCC34/C=N/NC(=O)Cc3ccccc3)C1(O)CCC2C1=CC(=O)OC1 (some centres undefined) in the records?
103% (inactive)

Which value of percent of DMSO control GFP has been reported for O=C1C=Cc2ccccc2C1=O in the records?
102% (inactive)

Which value of percent of DMSO control GFP has been reported for CC[C@@H]1C(=O)OC[C@@H]1Cc1cncn1C in the records?
89.8% (inactive)

Which value of percent of DMSO control GFP has been reported for CCNC(=S)N(C)CCc1cc2c(c(OC)c1C=C1C(=O)N(C)C(=O)N(C)C1=O)OCO2 in the records?
98.1% (inactive)

Which value of percent of DMSO control GFP has been reported for CN[C@H]1C[C@H]2O[C@@](C)([C@H]1OC)n1c3ccccc3c3c4c(c5c6ccccc6n2c5c31)C(=O)NC4 in the records?
104% (inactive)

Which value of percent of DMSO control GFP has been reported for Cc1cccc(C)c1NC1=NCCCS1 in the records?
94.7% (inactive)

Which value of percent of DMSO control GFP has been reported for Cc1cc2c(C(C)C)c(O)c(O)c(C=O)c2c(O)c1-c1c(C)cc2c(C(C)C)c(O)c(O)c(C=O)c2c1O in the records?
107% (inactive)

Which value of percent of DMSO control GFP has been reported for CN1C2CCC1CC(OC(=O)CCN1CCCC1)C2 (centres undefined) in the records?
105% (inactive)

Which value of percent of DMSO control GFP has been reported for OC1CCCCC1N1CCC(c2ccccc2)CC1 (centres undefined) in the records?
92.8% (inactive)

Which value of percent of DMSO control GFP has been reported for CC(C)[C@@]1(NC(=O)[C@@H]2C[C@@H]3c4cccc5[nH]cc(c45)C[C@H]3N(C)C2)O[C@@]2(O)[C@@H]3CCCN3C(=O)[C@H](Cc3ccccc3)N2C1=O in the records?
88.4% (inactive)

Which value of percent of DMSO control GFP has been reported for O=c1[nH]c2ccccc2n1C1CCN(CCCC(c2ccc(F)cc2)c2ccc(F)cc2)CC1 in the records?
97.1% (inactive)

Which value of percent of DMSO control GFP has been reported for CC(=O)c1ccc(-c2ccccc2)cc1 in the records?
97% (inactive)

Which value of percent of DMSO control GFP has been reported for Cc1cc(OCc2cc(C(=O)O)oc2C)c2c3c(c(=O)oc2c1)CCCC3 in the records?
104% (inactive)

Which value of percent of DMSO control GFP has been reported for C[C@]12CC[C@@H](O)C[C@@H]1CC[C@@H]1[C@@H]2CC[C@]2(C)C(=O)CC[C@@H]12 in the records?
100% (inactive)

Which value of percent of DMSO control GFP has been reported for O=C(CCCN1CCC2(CC1)C(=O)NCN2c1ccccc1)c1ccc(F)cc1 in the records?
98.9% (inactive)

Which value of percent of DMSO control GFP has been reported for O=c1c2ccccc2[se]n1-c1ccccc1 in the records?
99.6% (inactive)

Which value of percent of DMSO control GFP has been reported for CN1CCN(C(=O)OC2c3nccnc3C(=O)N2c2ccc(Cl)cn2)CC1 (centres undefined) in the records?
99.9% (inactive)

Which value of percent of DMSO control GFP has been reported for COC1=CC(=O)OC(/C=C/c2ccccc2)C1 (centres undefined) in the records?
102% (inactive)

Which value of percent of DMSO control GFP has been reported for COc1ccc(OC)c(C(O)C(C)N)c1 (centres undefined) in the records?
103% (inactive)

Which value of percent of DMSO control GFP has been reported for CN1C(=O)CN=C(c2ccc(Cl)cc2)c2cc(Cl)ccc21 in the records?
99% (inactive)

Which value of percent of DMSO control GFP has been reported for Cc1ccc(/C=C2/C(=O)NC(=O)N(C)C2=O)cc1 in the records?
97.4% (inactive)
